Origin of values: patent US9708259B2

- tested.target: human M1 (Homo sapiens, UniProt P11229)
- Construct: expressed in transfected cells; host or cells: CHO cells
- Sequence (P11229 whole entry): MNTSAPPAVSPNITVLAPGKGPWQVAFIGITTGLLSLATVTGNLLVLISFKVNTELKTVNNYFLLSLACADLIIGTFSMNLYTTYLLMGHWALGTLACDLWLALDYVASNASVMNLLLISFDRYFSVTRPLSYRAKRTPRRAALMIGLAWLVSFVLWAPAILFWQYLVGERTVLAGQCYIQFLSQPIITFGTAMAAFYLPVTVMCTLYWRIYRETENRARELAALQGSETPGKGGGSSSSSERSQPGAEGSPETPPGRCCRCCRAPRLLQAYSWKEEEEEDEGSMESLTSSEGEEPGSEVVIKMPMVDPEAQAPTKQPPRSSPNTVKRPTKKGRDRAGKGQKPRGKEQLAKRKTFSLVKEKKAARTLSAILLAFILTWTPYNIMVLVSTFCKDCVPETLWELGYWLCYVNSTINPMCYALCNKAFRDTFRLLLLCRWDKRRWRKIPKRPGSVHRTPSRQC
- protocol.description: M1 PAM assay (FLIPR intracellular calcium), human M1
- Format: cell-based
Hi! Could you tag entries with EC50 below 200 nM as met, and those at or above as not met? Much appreciated.

molecule	class.assignment
COc1ccc(F)c2c(C(=O)NC3CCOCC3)cn(Cc3ccc4c(cnn4C)c3)c12 [Example 154]	not met
O=C(N[C@H]1CCCC[C@@H]1O)c1cn(Cc2cc(F)cc(F)c2)c2cccc(F)c12 [Example 43]	not met
O=C(N[C@H]1CCCC[C@@H]1O)c1cn(Cc2ccccc2)c2cccc(F)c12 [Example 47]	met
COc1ccc(Cn2cc(C(=O)N[C@H]3CCCC[C@@H]3O)c3c(F)cccc32)cc1 [Example 31]	met
CCc1ccc(F)c2c(C(=O)NC3CCOCC3)cn(Cc3ccc4c(cnn4C)c3)c12 [Example 128]	not met
